Test system: PC-3
Experiment: Antimetastatic activity against human PC3 cells at 100 uM after 24 hrs by wound-healing assay
Format: functional
Details: PC-3, 24 h
Binary classification by inhibition at 100 µM, with 80% as an inclusive lower bound for yes; all other cases are no.

Solved cases (6 shown):
CCOc1cc(/C=C2\NC(=O)NC2=O)cc(Br)c1OCC
no
CC(C)CCOc1ccc(/C=C2\NC(=O)NC2=O)cc1
no
O=C1NC(=O)/C(=C/c2ccc(N3CCCC3)cc2)N1
no
COc1cc(/C=C2\NC(=O)NC2=O)ccc1OCC(=O)N1CCOCC1
no
CCCOc1c(Br)cc(/C=C2\NC(=O)NC2=O)cc1OC
yes
COc1cc(/C=C2\NC(=O)NC2=O)ccc1OCC(=O)N1CCCC1
no

**Query** Could you please find out whether "CCCOc1cc(OC)c(/C=C2\NC(=O)NC2=O)c(OC)c1Cl" has inhibition at 100 µM that meets 80% or exceeds it?
**Result** no

**Query** Would you mind doing "CCCOc1ccc(/C=C2\NC(=O)NC2=O)c(OCCC)c1" as well?
**Result** no

**Query** Repeat with O=C1NC(=O)/C(=C/c2ccc(O)cc2)N1 [4-HYDROXYPHENYLMETHYLENE HYDANTOIN]
**Result** no

**Query** Again, but for "COc1c(/C=C2\NC(=O)NC2=O)ccc(OC(C)(C)C)c1Cl"
**Result** no

**Query** One more compound: "O=C1NC(=O)/C(=C/c2ccc(OCc3ccc(F)cc3)cc2)N1"
**Result** no

**Query** Same again, this time with "CC(C)(C)Oc1ccc(/C=C2\NC(=O)NC2=O)cc1"
**Result** no

---

Test system: PC-3
Test: Antimetastatic activity against human PC3 cells after 24 hrs by wound-healing assay
Assay type: functional, cell-based
Conditions: PC-3, 24 h, read-out: pIC50 (converted)
IC50 under 90 µM gets 1, anything at or over 90 µM gets -1.

Example entries begin here.
O=C1NC(=O)/C(=C/c2cccc3c2OCO3)N1
-1
CC(C)(C)Oc1ccc(/C=C2\NC(=O)NC2=O)cc1
1
O=C1NC(=O)/C(=C/c2ccc(O)cn2)N1
1
O=C1NC(=O)/C(=C/c2cc(O)c[nH]2)N1
-1
Cc1nc[nH]c1/C=C1\NC(=O)NC1=O
-1
O=C1NC(=O)/C(=C/c2cnc[nH]2)N1
1
COc1cccc(/C=C2\NC(=O)NC2=O)n1
1
C#CCOc1c(Cl)cc(/C=C2\NC(=O)NC2=O)cc1OC
1
CCSc1ccc(/C=C2\NC(=O)NC2=O)cc1
1
CCCOc1cc(OC)c(/C=C2\NC(=O)NC2=O)c(OC)c1Cl
-1

**Query** Take the compound O=C1NC(=O)/C(=C/c2ccc(O)cc2)N1 [4-HYDROXYPHENYLMETHYLENE HYDANTOIN] and say whether its IC50 is less than 90 µM.
**Result** -1

**Query** Now the compound "CC(C)CCOc1ccc(/C=C2\NC(=O)NC2=O)cc1"
**Result** 1

**Query** Likewise for "O=C1NC(=O)/C(=C/c2c[nH]c3ncccc23)N1" ?
**Result** 1

**Query** "CCOc1cc(/C=C2\NC(=O)NC2=O)cc(Br)c1OCC" , same question.
**Result** 1

**Query** Note, next up: "CCCOc1c(Br)cc(/C=C2\NC(=O)NC2=O)cc1OC"
**Result** 1

**Query** Would you kindly repeat that for "O=C1NC(=O)/C(=C/c2ccncc2)N1" ?
**Result** -1

**Query** Moving on to "COc1cc(/C=C2\NC(=O)NC2=O)ccc1OCC(=O)c1ccccc1"
**Result** 1

---

System: PC-3
Assay: Antimetastatic activity against human PC3 cells at 100 uM after 24 hrs by wound-healing assay
Format: functional
Conditions: PC-3, 24 h
MEASUREMENT LABEL: inhibition at 100 µM (%)
Expressed in %, but write only the number.

Some solved cases for reference:
CSc1ccc(/C=C2\NC(=O)NC2=O)cc1
80.9
C#CCOc1c(Cl)cc(/C=C2\NC(=O)NC2=O)cc1OC
88.8
COc1cc(/C=C2\NC(=O)NC2=O)ccc1OCC(=O)c1ccccc1
91.8

**Query** Reported inhibition at 100 µM, compound "CCCOc1ccc(/C=C2\NC(=O)NC2=O)c(OC)c1" : ____
**Result** 23

---

Tested on: PC-3
Test: Antimetastatic activity against human PC3 cells after 24 hrs by wound-healing assay
Format: functional, cell-based
Details: PC-3, 24 h, read-out: pIC50 (converted)
Below: a set of entries, each annotated with reported IC50.
// return numeric value only (unit: µM, not printed)

Past entries and their recorded results:
COc1cc(/C=C2\NC(=O)NC2=O)ccc1OCC(=O)N1CCCC1
85.9
O=C1NC(=O)/C(=C/c2cc(I)c[nH]2)N1
199
COc1cc(/C=C2\NC(=O)NC2=O)ccc1OCC(=O)N1CCOCC1
94
O=C1NC(=O)/C(=C/c2ccc(OCc3ccc(F)cc3)cc2)N1
23.8
COc1c(/C=C2\NC(=O)NC2=O)ccc(OC(C)(C)C)c1Cl
91

**Query** Look up IC50: "CSc1ccc(/C=C2\NC(=O)NC2=O)cc1"
**Result** 44.7

**Query** Next up: "CCCOc1ccc(/C=C2\NC(=O)NC2=O)c(OCCC)c1"
**Result** 77.1

**Query** Thanks! And "O=C1NC(=O)/C(=C/c2cccc(-c3cccs3)n2)N1" ?
**Result** 32.4

---

Tested on: PC-3
Assay: Antimetastatic activity against human PC3 cells after 24 hrs by wound-healing assay
Format: functional, cell-based
Conditions: PC-3, 24 h, read-out: pIC50 (converted)
MEASUREMENT LABEL: IC50 (µM)
Respond numerically; units are µM and should not be typed.

Known IC50 results, listed for orientation:
CCCOc1ccc(/C=C2\NC(=O)NC2=O)c(OC)c1
110
O=C1NC(=O)/C(=C/c2ccc(N3CCCC3)cc2)N1
48.6

**Query** Find the recorded IC50 belonging to "O=C1NC(=O)/C(=C/c2cccc3c2NCC3)N1" and report it.
**Result** 86.5
